- ASSAYED TARGET: T1, SNTA1, Q13424
- T1 sequence (Q13424 82-180, limits assumed, looked up): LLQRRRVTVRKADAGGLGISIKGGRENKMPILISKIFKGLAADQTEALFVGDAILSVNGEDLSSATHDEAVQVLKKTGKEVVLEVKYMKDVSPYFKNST
- PROTOCOL NOTES: holdup assay
- Parameters: key: below the threshold = too weak to quantify, mostly under pKd 3.1 to 4
- CONDITION DETAILS: plain residues with an end cap or a label only (N-terminal biotin on a linker: ado-ado)
MEASURED PARAMETER: pKd

The following binders have reported results that may help.
BINDER | pKd
QLSFNTDTLC [ABCA2, Q9BZC7] | below the threshold
KKMLQRRTLL [OR8G1, Q15617] | 3.58
SPDRDRESIV [SCN5A, Q14524] | 6.16
ILRKSTTTTV [PRR16, Q569H4] | 3.92
EDGESWEYQI [TRPV6, Q9H1D0] | below the threshold

(Q) Which pKd is listed for KSRVAFFEEL [NF2, P35240;P35240-1] ?
(A) below the threshold

(Q) Which pKd is listed for IDESKKEWLI [CNTNAP2, Q9UHC6] ?
(A) below the threshold

(Q) Which pKd is listed for EDLEDEWEVI [TECPR2, O15040] ?
(A) below the threshold

(Q) Which pKd is listed for RFQQRMQTHV [KIRREL1, Q96J84] ?
(A) below the threshold

(Q) Which pKd is listed for PYPTADHMLA [JUP, P14923] ?
(A) below the threshold

Where these numbers come from: paper PMC9482650
